assay.info: Solubility of modafinil in solvent composition, measured by HPLC
Assay type: physicochemical
condition.set: PEG-400:benzyl alcohol 95:5 (v/v) solvent mixture, organic solvent or mixture, thermodynamic from solid, in 95:5 (v/v) PEG-400:benzyl alcohol, cooled to room temperature, filtered
endpoint.label: solubility
Could you write the number and then its unit?

### Prompt Any idea what solubility was measured for NC(=O)C[S+]([O-])C(c1ccccc1)c1ccccc1 (stereo not shown) [modafinil, 2-(benzhydryl-sulfinyl)acetamide] ?
### Response 61 mg/mL

Origin of measurements: patent US6919378B2
